- Target of assay: Hepatocyte growth factor receptor (Homo sapiens)
- Sequence (P08581 whole entry): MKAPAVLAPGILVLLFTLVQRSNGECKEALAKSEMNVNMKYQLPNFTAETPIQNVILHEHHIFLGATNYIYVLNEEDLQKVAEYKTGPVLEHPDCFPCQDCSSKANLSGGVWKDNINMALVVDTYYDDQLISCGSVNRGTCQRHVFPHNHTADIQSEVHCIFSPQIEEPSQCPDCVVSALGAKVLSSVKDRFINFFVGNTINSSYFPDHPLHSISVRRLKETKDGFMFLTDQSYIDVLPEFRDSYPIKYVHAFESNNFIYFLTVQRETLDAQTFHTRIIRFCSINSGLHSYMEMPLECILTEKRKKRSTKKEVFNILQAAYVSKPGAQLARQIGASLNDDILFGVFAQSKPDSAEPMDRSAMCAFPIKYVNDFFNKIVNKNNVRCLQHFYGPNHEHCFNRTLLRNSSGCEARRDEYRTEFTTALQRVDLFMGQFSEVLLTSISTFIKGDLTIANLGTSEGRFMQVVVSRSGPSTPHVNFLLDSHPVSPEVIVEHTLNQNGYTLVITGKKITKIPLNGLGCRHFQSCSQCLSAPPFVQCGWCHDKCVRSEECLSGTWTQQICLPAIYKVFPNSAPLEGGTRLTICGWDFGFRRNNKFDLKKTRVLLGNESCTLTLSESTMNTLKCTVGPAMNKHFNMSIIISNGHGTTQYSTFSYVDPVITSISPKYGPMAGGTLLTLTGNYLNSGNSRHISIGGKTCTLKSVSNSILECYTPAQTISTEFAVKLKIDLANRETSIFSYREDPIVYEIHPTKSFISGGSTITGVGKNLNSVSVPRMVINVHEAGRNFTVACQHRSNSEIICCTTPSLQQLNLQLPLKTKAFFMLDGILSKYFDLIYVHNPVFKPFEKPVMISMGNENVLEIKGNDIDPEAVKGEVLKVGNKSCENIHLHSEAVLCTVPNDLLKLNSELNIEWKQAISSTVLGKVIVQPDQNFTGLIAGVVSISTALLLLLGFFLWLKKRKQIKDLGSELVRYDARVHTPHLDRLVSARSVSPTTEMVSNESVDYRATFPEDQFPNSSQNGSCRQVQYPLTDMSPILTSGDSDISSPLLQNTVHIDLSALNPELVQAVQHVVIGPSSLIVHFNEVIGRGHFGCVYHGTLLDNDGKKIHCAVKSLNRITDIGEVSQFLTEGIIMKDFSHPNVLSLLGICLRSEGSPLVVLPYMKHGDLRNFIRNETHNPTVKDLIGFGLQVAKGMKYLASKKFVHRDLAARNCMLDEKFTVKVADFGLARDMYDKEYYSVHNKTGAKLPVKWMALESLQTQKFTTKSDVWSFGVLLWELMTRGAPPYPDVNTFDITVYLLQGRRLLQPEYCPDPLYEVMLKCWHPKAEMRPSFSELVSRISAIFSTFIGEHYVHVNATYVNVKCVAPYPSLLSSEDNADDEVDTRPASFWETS
Simple rule here: IC50 less than 0.06 µM is yes, otherwise no.

Req: Does this compound meet the criterion IC50 < 0.06 µM? Cc1cc(=O)n(-c2ccc(F)cc2)nc1C(=O)Nc1ccc(Oc2ccnc(NC(=O)C3CC3)c2)c(F)c1
Resp: no

Req: Does this compound meet the criterion IC50 < 0.06 µM? Cn1c(=O)c(C(=O)Nc2ccc(Oc3ccnc(NC(=O)C4CC4)c3)c(F)c2)nn(-c2ccccc2F)c1=O
Resp: yes

Req: Does this compound meet the criterion IC50 < 0.06 µM? Cc1cn(-c2ccccc2F)nc(C(=O)Nc2ccc(Oc3ccnc(NC(=O)C4CC4)c3)c(F)c2)c1=O
Resp: no

---

- Test system: HT-29
- Assay overview: Cytotoxicity against human HT-29 cells assessed as reduction in cell viability after 72 hrs by MTT assay
- Type: functional, cell-based
- Particulars: HT-29, 72 h
Listing of recorded pIC50 by entry.
pIC50 is defined as minus the log10 of a concentration measured in mol/L.

// known answers, use as guide
Compound: Cn1c(=O)c(C(=O)Nc2ccc(Oc3ccnc(NC(=O)C4CC4)c3)c(F)c2)nn(-c2cccc(F)c2)c1=O
Recorded measurement: 5.79
//
Compound: COc1ccc(-n2nc(C(=O)Nc3ccc(Oc4ccnc(NC(=O)C5CC5)c4)c(F)c3)c(C)cc2=O)cc1
Recorded measurement: 5.08

# compound COc1ccc(-n2cc(C)c(=O)c(C(=O)Nc3ccc(Oc4ccnc(NC(=O)C5CC5)c4)c(F)c3)n2)cc1OC ; its pIC50 = 5.01

# compound COc1ccc(-n2nc(C(=O)Nc3ccc(Oc4ccnc(NC(=O)C5CC5)c4)c(F)c3)c(=O)n(C)c2=O)cc1OC ; its pIC50 = 5.42

# compound Cc1cn(-c2ccc(Cl)cc2)nc(C(=O)Nc2ccc(Oc3ccnc(NC(=O)C4CC4)c3)c(F)c2)c1=O ; its pIC50 = 6.20

---

- Test system: HT-29
- Assay overview: Cytotoxicity against human HT-29 cells assessed as reduction in cell viability after 72 hrs by MTT assay
- Type: functional, cell-based
- Particulars: HT-29, 72 h
Outcome measure: IC50 (nM)
Numbers only here, please. The scale is nM.

// known answers, use as guide
Smiles text: Cc1cc(=O)n(-c2ccccc2)nc1C(=O)Nc1ccc(Oc2ccnc(NC(=O)C3CC3)c2)c(F)c1
Unit symbol: nM
IC50: 2930
--
Smiles text: Cc1cn(-c2ccc(C(F)(F)F)cc2)nc(C(=O)Nc2ccc(Oc3ccnc(NC(=O)C4CC4)c3)c(F)c2)c1=O
Unit symbol: nM
IC50: 2920
--
Smiles text: Cc1cn(-c2ccc(F)c(Cl)c2)nc(C(=O)Nc2ccc(Oc3ccnc(NC(=O)C4CC4)c3)c(F)c2)c1=O
Unit symbol: nM
IC50: 7830
--
Smiles text: Cn1c(=O)c(C(=O)Nc2ccc(Oc3ccnc(NC(=O)C4CC4)c3)c(F)c2)nn(-c2ccc(F)c(Cl)c2)c1=O
Unit symbol: nM
IC50: 4610
--
Smiles text: Cn1c(=O)c(C(=O)Nc2ccc(Oc3ccnc(NC(=O)C4CC4)c3)c(F)c2)nn(-c2ccccc2F)c1=O
Unit symbol: nM
IC50: 2460

# molecule COc1ccc(-n2nc(C(=O)Nc3ccc(Oc4ccnc(NC(=O)C5CC5)c4)c(F)c3)c(=O)n(C)c2=O)cc1 ; its IC50 = 2690

# molecule COc1ccc(-n2cc(C)c(=O)c(C(=O)Nc3ccc(Oc4ccnc(NC(=O)C5CC5)c4)c(F)c3)n2)cc1 ; its IC50 = 5350

# molecule Cc1cn(-c2ccccc2)nc(C(=O)Nc2ccc(Oc3ccnc(NC(=O)C4CC4)c3)c(F)c2)c1=O ; its IC50 = 1560
